Method Summary: Induction of apoptosis in mouse BaF3 cells assessed as survival population at 0.5 uM measured after 48 hrs by Annexin V-FITC/propidium iodide staining based flow cytometry(reference value: 96.35 %)
Assay type: toxicity, cell-based
Condition Context: read-out: Activity
Quantity Name: viability at 48 h, 0.5 µM (%)
Give your result in % as a bare value.

Entry COc1cc(CNc2ccc3c(c2)ncn3-c2ccccc2)ccc1OCCO needs its viability at 48 h, 0.5 µM filled in; supply it.
96.7

* * *

Tested on: MOLM-13
Method Summary: Antiproliferative activity against human MOLM-13 cells harboring FLT3-ITD mutant assessed as reduction in cell viability measured after 72 hrs by MTS assay
Assay type: functional, cell-based
Condition Context: MOLM-13, 72 h
Quantity Name: IC50
Record the result as a number with its unit.

Assign IC50 to the following record: OCCOc1ccc(CNc2ccc3c(c2)ncn3-c2ccccc2)cc1OCCO
69.8 nM

* * *

Method Summary: Half life in 12 hrs fasted Sprague-Dawley rat at 15 mg/kg, po measured upto 24 hrs by LC-MS analysis
Format: ADME, organism-based
Condition Context: in vivo
Quantity Name: half-life (h)
Enter your answer as a number in h; do not include the unit.

# return recorded half-life for input COc1cc(CNc2ccc3c(c2)ncn3-c2ccccc2)ccc1OCCO
4.28

* * *

Method Summary: Clearance in 12 hrs fasted Sprague-Dawley rat at 2 mg/kg, iv measured upto 24 hrs by LC-MS analysis
Assay type: ADME, organism-based
Condition Context: in vivo
Quantity Name: clearance (mL/min/kg)
All answers are understood in mL/min/kg, so give the number only.

Give reported clearance value for COc1cc(CNc2ccc3c(c2)ncn3-c2ccccc2)ccc1OCCO
43.2

* * *

Method Summary: AUC (0-t) in 12 hrs fasted Sprague-Dawley rat at 15 mg/kg, po measured upto 24 hrs by LC-MS analysis
Assay type: ADME, organism-based
Set-up: route oral, dose 15 mg/kg, time <=24
Condition Context: in vivo
Quantity Name: AUC(0-t) at 24 h
# output: number + unit

Give reported AUC(0-t) at 24 h value for COc1cc(CNc2ccc3c(c2)ncn3-c2ccccc2)ccc1OCCO
2890 ng·h/mL

* * *

Target Entity: Serine/threonine-protein kinase B-raf (Homo sapiens)
Sequence (P15056 whole entry): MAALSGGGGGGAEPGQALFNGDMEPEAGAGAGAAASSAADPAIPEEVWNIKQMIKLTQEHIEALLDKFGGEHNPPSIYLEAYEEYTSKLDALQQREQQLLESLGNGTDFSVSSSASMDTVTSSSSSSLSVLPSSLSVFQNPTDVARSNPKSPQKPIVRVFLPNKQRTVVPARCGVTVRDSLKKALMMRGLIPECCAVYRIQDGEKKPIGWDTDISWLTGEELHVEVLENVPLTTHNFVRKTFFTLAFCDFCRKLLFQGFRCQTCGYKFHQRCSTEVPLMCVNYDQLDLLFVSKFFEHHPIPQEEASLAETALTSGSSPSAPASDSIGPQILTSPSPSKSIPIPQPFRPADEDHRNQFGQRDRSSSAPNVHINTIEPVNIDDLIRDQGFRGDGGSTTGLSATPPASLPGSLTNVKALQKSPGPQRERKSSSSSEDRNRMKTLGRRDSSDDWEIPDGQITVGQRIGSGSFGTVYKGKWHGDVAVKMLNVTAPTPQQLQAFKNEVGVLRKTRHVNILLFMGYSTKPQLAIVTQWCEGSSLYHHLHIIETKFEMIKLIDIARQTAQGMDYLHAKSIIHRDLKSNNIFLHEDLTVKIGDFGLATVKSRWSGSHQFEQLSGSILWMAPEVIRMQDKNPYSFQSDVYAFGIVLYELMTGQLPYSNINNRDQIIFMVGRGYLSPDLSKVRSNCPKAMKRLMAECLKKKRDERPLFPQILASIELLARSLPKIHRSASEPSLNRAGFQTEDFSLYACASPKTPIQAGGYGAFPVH
Quantity Name: IC50

Please report the measured IC50 for COc1cc(CNc2ccc3c(c2)ncn3-c2ccccc2)ccc1OCCO tested on Serine/threonine-protein kinase B-raf (Homo sapiens).
> 1 µM

* * *

pIC50 values for the molecules below.
Target Entity: Receptor-type tyrosine-protein kinase FLT3 (Homo sapiens, UniProt P36888, ITD)
Sequence (P36888 whole entry, looked up, change not shown): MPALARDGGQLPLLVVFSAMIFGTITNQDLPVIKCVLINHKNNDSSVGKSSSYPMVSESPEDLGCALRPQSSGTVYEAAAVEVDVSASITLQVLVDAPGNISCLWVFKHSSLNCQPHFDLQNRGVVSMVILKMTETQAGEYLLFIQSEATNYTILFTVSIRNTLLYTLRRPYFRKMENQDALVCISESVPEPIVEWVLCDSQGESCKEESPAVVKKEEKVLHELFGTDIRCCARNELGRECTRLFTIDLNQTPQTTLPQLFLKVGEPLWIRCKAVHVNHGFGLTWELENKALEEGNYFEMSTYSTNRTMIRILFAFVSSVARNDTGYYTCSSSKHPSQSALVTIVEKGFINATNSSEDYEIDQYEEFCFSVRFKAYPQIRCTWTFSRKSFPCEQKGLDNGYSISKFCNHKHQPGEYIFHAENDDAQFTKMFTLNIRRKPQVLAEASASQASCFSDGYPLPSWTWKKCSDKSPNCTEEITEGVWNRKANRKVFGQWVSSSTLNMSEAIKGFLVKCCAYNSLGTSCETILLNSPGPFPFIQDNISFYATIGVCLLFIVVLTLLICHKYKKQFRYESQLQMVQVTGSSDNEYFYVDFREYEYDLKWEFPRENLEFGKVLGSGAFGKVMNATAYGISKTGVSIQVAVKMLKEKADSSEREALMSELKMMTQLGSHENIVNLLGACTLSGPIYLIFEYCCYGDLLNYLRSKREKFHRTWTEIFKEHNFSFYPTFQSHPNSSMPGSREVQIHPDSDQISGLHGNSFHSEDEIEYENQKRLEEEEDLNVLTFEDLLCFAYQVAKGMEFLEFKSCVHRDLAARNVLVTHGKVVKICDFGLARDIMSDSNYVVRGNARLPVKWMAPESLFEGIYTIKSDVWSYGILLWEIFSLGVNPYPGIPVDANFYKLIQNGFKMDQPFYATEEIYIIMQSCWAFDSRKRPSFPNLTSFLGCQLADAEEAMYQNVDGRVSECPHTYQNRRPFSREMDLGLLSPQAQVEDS
Method Summary: Inhibition of FLT3-ITD mutant (unknown origin)
Friendly reminder that pIC50 comes from taking -log10 of the concentration in mol/L.

- COc1ccc(CNc2ccc3c(c2)ncn3-c2ccccc2)cc1OC: 7.05

Next:
Determine from records and report pIC50 for COc1cc(CNc2ccc3c(c2)ncn3-c2ccccc2)ccc1OCCO
7.15

* * *

Method Summary: Cmax in 12 hrs fasted Sprague-Dawley rat at 15 mg/kg, po measured upto 24 hrs by LC-MS analysis
Type: ADME, organism-based
Design: route oral, dose 15 mg/kg, time <=24
Condition Context: in vivo
Quantity Name: Cmax (ng/mL)
Numbers only; they are read as ng/mL.

Given the compound COc1cc(CNc2ccc3c(c2)ncn3-c2ccccc2)ccc1OCCO , write its reported Cmax.
440

* * *

Method Summary: Induction of apoptosis in mouse BaF3 cells assessed as survival population at 0.1 uM measured after 48 hrs by Annexin V-FITC/propidium iodide staining based flow cytometry(reference value: 96.35 %)
Format: toxicity, cell-based
Condition Context: read-out: Activity
Quantity Name: viability at 48 h, 0.1 µM (%)
Express your answer in %, writing the number without its unit.

Supply recorded viability at 48 h, 0.1 µM for COc1cc(CNc2ccc3c(c2)ncn3-c2ccccc2)ccc1OCCO here.
98.3
